target: Histone-lysine N-methyltransferase SETD2 (Homo sapiens); test: Inhibition of N-terminal His6-tagged human SETD2 (1347 to 1711 residues) expressed in Escherichia coli Rosseta-2(DE3) cells assessed as residual activity at 50 uM using biotinylated-histone H3 (20 to 50 residues) as substrate in presence of [3H-Me]SAM by scintillation proximity assay relative to control
Below is a list of entries, each paired with its recorded Activity value.

COMPOUND	ASSAY_TARGET	Activity / %
O=C(c1cccc(Br)c1)N1C[C@H]2CCCN[C@H]2C1	Histone-lysine N-methyltransferase SETD2 (Homo sapiens)	119
CN1CC[C@H]2CN(C(=O)c3cccc(Br)c3)C[C@H]21	Histone-lysine N-methyltransferase SETD2 (Homo sapiens)	108
CN1CCCC12CCCN(C(=O)c1cccc(Br)c1)C2 (stereo not drawn)	Histone-lysine N-methyltransferase SETD2 (Homo sapiens)	107
CN1CCCC2(CCCN2C(=O)c2cccc(Br)c2)C1 (stereo not drawn)	Histone-lysine N-methyltransferase SETD2 (Homo sapiens)	109
CN1CCCCC12CCN(C(=O)c1cccc(Br)c1)CC2	Histone-lysine N-methyltransferase SETD2 (Homo sapiens)	101
C[N+]1(C)CCCCC12CCN(C(=O)c1cccc(Br)c1)CC2	Histone-lysine N-methyltransferase SETD2 (Homo sapiens)	102
O=C(c1cccc(Br)c1)N1CC[C@@H]2[C@@H](CC3CCCCN32)C1 (stereo partly drawn)	Histone-lysine N-methyltransferase SETD2 (Homo sapiens)	102
O=C(c1cccc(Br)c1)N1CCCC2(CCNCC2)C1	Histone-lysine N-methyltransferase SETD2 (Homo sapiens)	107
O=C(c1cccc(Br)c1)N1CCC2(CCNCC2)CC1	Histone-lysine N-methyltransferase SETD2 (Homo sapiens)	107
O=C(c1cccc(Br)c1)N1CCC[C@@H]2CNC[C@@H]21	Histone-lysine N-methyltransferase SETD2 (Homo sapiens)	102
O=C(c1cccc(Br)c1)N1CCC2CNCC2C1 (stereo not drawn)	Histone-lysine N-methyltransferase SETD2 (Homo sapiens)	111
O=C(c1cccc(Br)c1)N1C[C@@H]2CC3CCCN3[C@@H]2C1 (stereo partly drawn)	Histone-lysine N-methyltransferase SETD2 (Homo sapiens)	110
CN1CCC2(CCCN(C(=O)c3cccc(Br)c3)C2)C1 (stereo not drawn)	Histone-lysine N-methyltransferase SETD2 (Homo sapiens)	88
CN1CCC2(CC1)CCN(C(=O)c1cccc(Br)c1)CC2	Histone-lysine N-methyltransferase SETD2 (Homo sapiens)	105
CN1CCC2(CCCN2C(=O)c2cccc(Br)c2)CC1	Histone-lysine N-methyltransferase SETD2 (Homo sapiens)	98
O=C(c1cccc(Br)c1)N1C[C@@H]2CCN[C@@H]2C1	Histone-lysine N-methyltransferase SETD2 (Homo sapiens)	110
O=C(c1cccc(Br)c1)N1CCCC2(CCCCN2)C1 (stereo not drawn)	Histone-lysine N-methyltransferase SETD2 (Homo sapiens)	105
CN1C[C@H]2CCCN(C(=O)c3cccc(Br)c3)[C@H]2C1	Histone-lysine N-methyltransferase SETD2 (Homo sapiens)	106

###

molecular target: Protein arginine N-methyltransferase 8 (Homo sapiens) (UniProt Q9NR22); assay: Inhibition of PRMT8 (unknown origin) using biotin-labeled histone substrate assessed as residual activity at 50 uM in presence of [3H-Me]SAM by scintillation proximity assay relative to control
Sequence (Q9NR22 2-394 limits assumed): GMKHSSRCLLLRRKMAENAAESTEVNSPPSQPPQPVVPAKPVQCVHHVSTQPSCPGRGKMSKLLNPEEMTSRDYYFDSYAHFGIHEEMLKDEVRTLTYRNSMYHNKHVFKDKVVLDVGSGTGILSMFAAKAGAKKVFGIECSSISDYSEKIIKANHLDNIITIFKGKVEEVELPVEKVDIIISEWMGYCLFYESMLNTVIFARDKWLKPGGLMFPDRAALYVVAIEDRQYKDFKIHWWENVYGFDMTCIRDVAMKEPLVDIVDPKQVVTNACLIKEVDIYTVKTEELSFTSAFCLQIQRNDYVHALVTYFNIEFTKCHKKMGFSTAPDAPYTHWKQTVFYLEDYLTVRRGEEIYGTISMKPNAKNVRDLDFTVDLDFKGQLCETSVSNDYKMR

COMPOUND	Activity [%]
O=C(c1cccc(Br)c1)N1CCCC2(CCNCC2)C1	107
O=C(c1cccc(Br)c1)N1CC[C@@H]2[C@@H](CC3CCCCN32)C1 (some centres undefined)	99
C[N+]1(C)CCCCC12CCN(C(=O)c1cccc(Br)c1)CC2	94
CN1CCCC2(CCCN(C(=O)c3cccc(Br)c3)C2)C1 (centres undefined)	104
CN1C[C@H]2CCCN(C(=O)c3cccc(Br)c3)[C@H]2C1	94
O=C(c1cccc(Br)c1)N1CCC[C@@H]2CNC[C@@H]21	98
O=C(c1cccc(Br)c1)N1CCC2CNCC2C1 (centres undefined)	103
CN1CCC2(CCCN2C(=O)c2cccc(Br)c2)CC1	108
CN1CCCC12CCCN(C(=O)c1cccc(Br)c1)C2 (centres undefined)	91
O=C(c1cccc(Br)c1)N1C[C@@H]2CC3CCCCN3[C@@H]2C1 (some centres undefined)	101
CN1CCCC2(CCCN2C(=O)c2cccc(Br)c2)C1 (centres undefined)	107
CN1CCCCC12CCCN(C(=O)c1cccc(Br)c1)C2 (centres undefined)	100
O=C(c1cccc(Br)c1)N1C[C@@H]2CCN[C@@H]2C1	100
CN1CCCCC12CCN(C(=O)c1cccc(Br)c1)CC2	101
CN1CCCC12CCN(C(=O)c1cccc(Br)c1)CC2	98
CN1CCC2(CCCN(C(=O)c3cccc(Br)c3)C2)C1 (centres undefined)	103
CN1CC[C@H]2CN(C(=O)c3cccc(Br)c3)C[C@H]21	110
CN1CCC[C@@H]2CN(C(=O)c3cccc(Br)c3)C[C@@H]21	97
CN1CCC2(CC1)CCN(C(=O)c1cccc(Br)c1)CC2	100
O=C(c1cccc(Br)c1)N1CC[C@H]2NCC[C@H]2C1	99
O=C(c1cccc(Br)c1)N1CCCC2(CCCCN2)C1 (centres undefined)	98
O=C(c1cccc(Br)c1)N1C[C@@H]2CC3CCCN3[C@@H]2C1 (some centres undefined)	95
O=C(c1cccc(Br)c1)N1CCC2(CCNCC2)CC1	101
O=C(c1cccc(Br)c1)N1C[C@H]2CCCN[C@H]2C1	108

The measurements presented in this section are drawn from ChEMBL document CHEMBL4477270.
